Note to self: these compounds have pIC50 reported for PIK3CA (human) (UniProt P42336) in various publications.
pIC50: −log10 of the molar value.

smiles data	observed value
C[C@H](NC(=O)c1cnc2cccnn12)c1cc2cccc(Cl)c2c(=O)n1-c1ccc(F)cc1	5.00 to 6.00
C[C@H](Nc1ncnc2scnc12)c1cc2cccc(-c3ccnc(C(F)(F)F)c3)c2c(=O)n1-c1ccccc1	5.00 to 6.00

Proceed to the following item.
Task: # query: pIC50 of entry "N#CC1CCN(C(=O)N2CCOc3ccc(-c4ccc(-c5ncc[nH]5)cc4)cc3C2)CC1"
Result: 6.70 to 7.12

* * *

Note to self: these compounds have pIC50 reported for UniProt P42336 in various publications.
pIC50: −log10 of the molar value.

Previously resolved entries follow.
compound	tested target	observed value
Cc1nc2ccc(-c3ccc4c(c3)CN(c3ncnc(Cc5ccccc5)c3C)CCO4)cc2[nH]1	UniProt P42336	5.70 to 6.00
Cc1nc(N)ncc1-c1nc(N2CCOCC2)c2nc(N3CC[C@H](NS(C)(=O)=O)C3)n(CC3CC3)c2n1	UniProt P42336	> 8.00
CC(C)N1CCC(Oc2nc([C@H](C)Nc3ncnc4[nH]cnc34)cc3cccc(-c4cnn(C)c4)c23)CC1	UniProt P42336	< 5.00
COc1ncc(-c2cc(O[C@H]3CC[C@H](OC)CC3)c3nc(N)nc(C)c3c2)cc1NS(=O)(=O)c1ccc(F)cc1F (single isomer, unassigned)	UniProt P42336	8.96

Task: Item "CCN(CC)S(=O)(=O)Nc1ccc(F)c(C(=O)c2c[nH]c3ncc(-c4cnc(OC)nc4)cc23)c1F" with UniProt P42336 - pIC50?
Result: ≥ 5.00

Task: Item "Nc1ncc(-c2nc(N3CCOCC3)c3ncc(-c4ccc(NC(=O)c5cccnc5)cc4)cc3n2)cn1" with UniProt P42336 - pIC50?
Result: > 7.30

Task: Item "CC(C)n1nc(-c2cc3cccc(O)c3[nH]2)c2c(N)ncnc21" with UniProt P42336 - pIC50?
Result: 5.46

Task: Item "Nc1nc2cc(-c3ccc4nccc(N5CCOCC5)c4c3)ccc2o1" with UniProt P42336 - pIC50?
Result: > 7.00

Task: Item CCC(CC)NC(=O)C(C)Cn1cnc2ccc(-c3cnc(OC)c(NS(=O)(=O)c4ccc(F)cc4Cl)c3)cc2c1=O (single isomer, unassigned) with UniProt P42336 - pIC50?
Result: 7.24

Task: Item "N#CC1(C(=O)N2CCC(n3nnc4cnc5ccc(-c6cnc(N)c(C(F)(F)F)c6)nc5c43)CC2)CC1" with UniProt P42336 - pIC50?
Result: > 7.00

Task: Item "C[C@H](Nc1ncnc2scnc12)c1cc2cccc(-c3ccc(N(C)C)nc3)c2c(=O)n1-c1ccccc1" with UniProt P42336 - pIC50?
Result: 5.00 to 6.00

Task: Item "[2H]C([2H])([2H])C([2H])([2H])N(c1cncc(-c2sc(NC(=O)N3CC[C@@H](C)[C@H]3C(N)=O)nc2C)n1)C([2H])([2H])C([2H])([2H])[2H]" with UniProt P42336 - pIC50?
Result: 8.40

* * *

Note to self: these molecules have IC50 reported for PIK3CA (human) in various publications.

Previously resolved entries follow.
smiles data	IC50
CCCS(=O)(=O)Nc1cccc(-c2ccc3nc(-c4ccc(N)nc4)nc(N4CCOCC4)c3n2)c1F	1 to 100 nM
C[C@@H]1COCCN1c1cnc2ccc(-c3ccc4oc(N)nc4c3)nc2n1	< 100 nM

Task: Item "Cc1cccc2cc(Cn3nc(-c4cccc(O)c4)c4c(N)ncnc43)n(-c3ccccc3C(C)C)c(=O)c12" with PIK3CA (human) - IC50?
Result: > 10000 nM

Task: Item "CC(=O)Nc1nc2ccc(-c3nn(Cc4cc5cccc(C)c5c(=O)n4C)c4ncnc(N)c34)cc2s1" with PIK3CA (human) - IC50?
Result: < 100 nM

* * *

Note to self: these compounds have IC50 reported for PIK3CA (human) (UniProt P42336) in various publications.

Previously resolved entries follow.
compound	tested target	IC50
CS(=O)(=O)N1CCN(C(=O)c2cccc(-c3cnc4c(N5CCOCC5)nc(-c5cnc(N)nc5)nc4c3)c2)CC1	PIK3CA (human) (UniProt P42336)	< 50 nM
CNc1ncc(-c2nc(N3CCOCC3)c3nc(N4CCN(C(C)=O)[C@@H](C)C4)n(CC(F)(F)F)c3n2)cn1	PIK3CA (human) (UniProt P42336)	< 10 nM

Proceed to the following item.
Task: # query: IC50 of entry Cc1nc2ccc(-c3ccc4c(c3)CN(C(=O)N3CCCCC3c3ccc(F)c(Cl)c3)CCO4)cc2[nH]1 (stereo not drawn)
Result: 75 to 200 nM

* * *

Note to self: these compounds have IC50 reported for UniProtKB P42336 in various publications.

smiles data	IC50
O=C(N1CCC(CF)CC1)N1CCOc2ccc(-c3ccc(-c4ncc[nH]4)cc3)cc2C1	75 to 200 nM
Cc1ccc(-c2ccc3ncc4ncn(C5CCN(C(=O)[C@H](C)O)CC5)c4c3n2)cn1	< 100 nM
Cn1cc(/C=C2\Oc3cccc(O)c3C2=O)c2c(N3CCN(C(=O)N4CCCC4)CC3)ccnc21	70 nM

Task: # query: IC50 of entry "C[C@H](NC(=O)c1c(N)nn2cccnc12)c1cc2cccc(-c3ccn[nH]3)c2c(=O)n1-c1ccccc1"
Result: 1000 to 10000 nM

* * *

Note to self: these compounds have IC50 reported for PIK3CA (human) in various publications.

Previously resolved entries follow.
compound	tested target	observed value
Cc1cccc2cc(Cn3nc(/C=C4/SC(=O)NC4=O)c4c(N)ncnc43)n(-c3ccccc3F)c(=O)c12	PIK3CA (human)	< 10000 nM
O=C(CC1CCCO1)N1CC[C@H](Nc2cc(-n3c(C(F)F)nc4ccccc43)nc(N3CCOCC3)n2)C1 (stereo partly drawn)	PIK3CA (human)	4900 nM
Nc1nc2cc(-c3ccc4ncc(N5CCNCC5)nc4c3)ccc2o1	PIK3CA (human)	< 100 nM
COC[C@H](Nc1ccc2c(c1)OCCn1cc(N3C(=O)SC[C@H]3C(F)F)nc1-2)C(N)=O	PIK3CA (human)	1 nM

Task: Item "Nc1nc2cc(-c3ccc4ncc(C(=O)NCCOCC(=O)O)n4c3)ccc2o1" with PIK3CA (human) - IC50?
Result: < 100 nM

Task: Item "Cc1nc2ccc(-c3ccc4c(c3)CN(C(=O)N3CCC(c5ccccc5)CC3)CCO4)cc2[nH]1" with PIK3CA (human) - IC50?
Result: 1000 to 3000 nM

* * *

Note to self: these molecules have pIC50 reported for PIK3CA (human) in various publications.
pIC50: −log10 of the molar value.

molecule	tested target	observed value
c1ccc2ncc(-c3ccc4c(c3)CN(c3ccnc5ccccc35)CCO4)cc2c1	PIK3CA (human)	5.70 to 6.00
O=C(c1cnc2ccc(-c3cccc(S(=O)(=O)Nc4ccccc4)c3)cn12)N1CCOCC1	PIK3CA (human)	< 5.00

Task: # query: pIC50 of entry "C[C@H](Nc1ncnc2scnc12)c1cc2scc(-c3cnn(C)c3)c2c(=O)n1-c1ccccc1"
Result: 5.00 to 6.00

Task: # query: pIC50 of entry Cc1csc2nc(C(C)Nc3nc(N)nc4[nH]cnc34)c(-c3cccc(F)c3)c(=O)n12 (stereo not shown)
Result: < 6.30

* * *

Note to self: these compounds have IC50 reported for PIK3CA (human) (UniProt P42336) in various publications.

compound	IC50
CNC(=O)Nc1ccc(-c2nc(N3CCOCC3)nc3c2cnn3C2CCOCC2)cc1	> 100 nM
CC(=O)N(C)[C@H]1CC[C@H](Nc2nc(N3CCOCC3)nc(-n3c(C(F)F)nc4ccccc43)n2)CC1	1400 nM
COc1cc(-c2cccc(NS(=O)(=O)CCCF)c2F)cc2c(N3CCOC[C@H]3C)nc(-c3cnc(N)c(F)c3)nc12	1000 to 10000 nM
Cc1nc2ccc(-c3ccc4c(c3)CN(C(=O)N3CCC(c5ccccc5)C3)CCO4)cc2[nH]1 (stereo not shown)	500 to 1000 nM
COCCN(C)[C@H]1CC[C@H](CNc2nc(N3CCOCC3)cc(-n3c(C(F)F)nc4ccccc43)n2)CC1	6000 nM
COc1ncc(-c2ccc3ncc4nnc(C)n4c3c2)cc1NS(=O)(=O)c1ccc(F)cc1	< 100 nM
CCn1ccc2c(N3CCOCC3)nc(-c3ccc(NC(=O)Nc4ccc(C(=O)NCCOC)cc4)cc3)nc21	9.5 nM
CN(C)C(=O)C1CCN(c2ccnc3c2c(/C=C2\Oc4ccc(NC(=O)NC5CNC5)cc4C2=O)cn3C)CC1	68 nM

Task: Item "Nc1ncc(-c2nc(N3CCOCC3)c3ncc(-c4ccc(NC(=O)C5CC5)cc4)cc3n2)cn1" with PIK3CA (human) (UniProt P42336) - IC50?
Result: < 50 nM

Task: Item "CC(=O)N1CCC(C(=O)Nc2ccc3[nH]c(=O)cc(Oc4ccccc4)c3c2)CC1" with PIK3CA (human) (UniProt P42336) - IC50?
Result: > 10000 nM

Task: Item "O=c1cc(Oc2cccc([N+](=O)[O-])c2)c2ccccc2[nH]1" with PIK3CA (human) (UniProt P42336) - IC50?
Result: > 10000 nM

Task: Item "Cc1cccc2cc(Cn3nc(C#C[C@@H](C)O)c4c(N)ncnc43)n(-c3ccccc3Cl)c(=O)c12" with PIK3CA (human) (UniProt P42336) - IC50?
Result: > 10000 nM

Task: Item "CCN(CC)c1ncc2c(n1)-c1sc(NC(=O)N3CC[C@H](C)[C@H]3C(N)=O)nc1CC2" with PIK3CA (human) (UniProt P42336) - IC50?
Result: 5.5 nM
